System: NCI-H226
Assay: NCI tumour cell line growth inhibition, 48 h
Calls of active or inactive are those of the source. Rule as the data show it: active = GI50 up to about 1.1 µM and inactive = higher.
measurement.kind: GI50

Batch of 4 compounds: report GI50 for each.
1. CCOC(=O)c1ccc(C(=O)/C(C(=O)OC(C)(C)C)=C2\CCCN2C)n1C
2. COC(=O)c1c(C)cccc1C1CN=NC12Cc1cccc(C)c1C2=O (stereo not given)
3. OCC1C(OCc2ccccc2)C(OCc2ccccc2)C(OCc2ccccc2)CN1Cc1ccccc1 (stereo not given)
4. CC(C)CCC[C@@H](C)[C@H]1CC[C@H]2C3=C[C@H](OS(=O)(=O)O)[C@@]4(O)C[C@@H](O)CC[C@]4(C)[C@@]3(O)CC[C@]12C

## Output
> 100 µM (inactive)
20.9 µM (inactive)
33.8 µM (inactive)
60 µM (inactive)

Batch of 7 compounds: report GI50 for each.
1. COC(=O)C(/C(=N/N)C(=O)Nc1ccc(C)c(C)c1)c1nc2ccc(Cl)cc2nc1O (stereo not given)
2. O=C(c1ccccc1)N1CCN(C(=S)N(C(=O)c2ccccc2)c2ccccc2)C1=S
3. COc1ccccc1NC(=O)C1=C(C)NC(C)=C(C(=O)Nc2ccccc2OC)C1c1ccccc1Cl
4. CC(=O)OCCOCNC(=S)N/N=C/c1ccc([N+](=O)[O-])s1
5. CC(=O)OCC1OC(n2ncc(=O)[nH]c2=O)C(OC(C)=O)C1OC(C)=O (stereo not given)
6. O=C1C(c2ccccc2)=C(c2ccccc2)C(c2ccccc2)/C1=C1\C(=O)C(c2ccccc2)=C(c2ccccc2)C1c1ccccc1 (stereo not given)
7. COc1ccc2o/c(=N\c3ccc(F)cc3)c(C(N)=O)cc2c1

## Output
1. > 100 µM (inactive)
2. 10.7 µM (inactive)
3. > 100 µM (inactive)
4. > 100 µM (inactive)
5. 15.3 µM (inactive)
6. > 100 µM (inactive)
7. 36.6 µM (inactive)

Batch of 6 compounds: report GI50 for each.
1. CC1(C)C/C(=N/O)c2c(nc3ccc4ccccc4c3c2-c2ccc(Cl)cc2)C1
2. O=C(NNC(=S)Nc1cccc(Cl)c1)c1cc(-c2ccccc2)nc2ccccc12
3. CCOC(=O)C1(Br)S(=O)(=O)OCCOS1(=O)=O
4. CC1=C(C(=O)Nc2ccccc2)C(c2ccc(C3C(C(=O)Nc4ccccc4)=C(C)NC(C)=C3C(=O)Nc3ccccc3)cc2)C(C(=O)Nc2ccccc2)=C(C)N1
5. C/C=C/C(=O)[C@@H](O)C(C)C
6. CCn1c2ccc(C(=O)CCCN(C)C)cc2c2cc(C(=O)CCCN(C)C)ccc21

## Output
21 µM (inactive)
20 µM (inactive)
> 100 µM (inactive)
3.96 µM (inactive)
> 100 µM (inactive)
2.74 µM (inactive)

Batch of 3 compounds: report GI50 for each.
1. Cc1ccc(C)c(N2C(=O)C(=O)C(c3nc4ccccc4s3)/C(=N/N)C2=O)c1 (stereo not given)
2. O=C1C=CC(=O)C12CCc1ccccc12
3. O=C1O[C@@H](c2ccc3c(c2)OCO3)C2C(=O)O[C@@H](c3ccc4c(c3)OCO4)C12 (stereo not given in full)

## Output
["> 100 µM (inactive)", "> 100 µM (inactive)", "> 100 µM (inactive)"]

---

Test system: UO-31
Experiment: NCI tumour cell line growth inhibition, 48 h
Active and inactive are the calls of the source. No stated cut-off is given here; in the data, active = GI50 up to about 1.1 µM and inactive = higher.
measurement.kind: GI50

Consider the worked cases shown below.
compound	value
c1ccc(/N=C2\SC(=NNc3ccccc3)S\C2=N/c2ccccc2)cc1	> 100 µM (inactive)
CCOC(=O)N1c2ccccc2S(=O)(=O)c2ccccc21	> 100 µM (inactive)
CC(=N/NC(=S)N1CCCCC1)/C(C)=N\NC(=S)N1CCCCC1	1.59 µM (inactive)
CC1CCCN(CC(O)CN2CCCc3ccccc32)C1 (stereo unspecified)	76 µM (inactive)

Batch of 7 compounds: report GI50 for each.
1. COc1ccccc1NC(=O)C1=C(C)NC(C)=C(C(=O)Nc2ccccc2OC)C1c1cccc2c1OCO2
2. COc1ccccc1C1C(Cl)C(=O)N1NC(=O)Cc1ccccc1 (stereo unspecified)
3. O=C(CSc1nc2nncc-2c(O)[nH]1)c1ccc(Cl)cc1
4. Nc1nccc2c1ncn2C1C=C(CO)C(O)C1O (stereo unspecified)
5. CC[P+]1(CC)CCCC1
6. CCOC(=O)N(c1ccccc1)N(CC)C(=O)/C(C)=N/Nc1ccc([N+](=O)[O-])cc1
7. OCC(O)C(O)c1nn(-c2ccccc2)c2nc3cc(Cl)c(Cl)cc3nc12 (stereo unspecified)

## Output
47.4 µM (inactive)
32.1 µM (inactive)
> 100 µM (inactive)
3.39 µM (inactive)
> 100 µM (inactive)
14.8 µM (inactive)
5.98 µM (inactive)

---

Test system: EKVX
Assay: NCI tumour cell line growth inhibition, 48 h
Active and inactive are the calls of the source. Cut-off read from the data, not from the text of the source: active = GI50 up to about 1.1 µM and inactive = higher.
measurement.kind: GI50

Consider the worked cases shown below.
compound	system.name	GI50
CC1CCCC2(O1)OC1CC(=O)OC1C1=C2C(=O)c2ccccc2C1=O (centres undefined)	EKVX	3.87 µM (inactive)
COC(=O)[C@@H]1C[C@@H]2c3ccccc3N(S(=O)(=O)c3ccccc3)[C@@H]2N1C(=O)OC	EKVX	> 100 µM (inactive)

Batch of 3 compounds: report GI50 for each.
1. COc1cc(S(=O)(=O)Nc2ccc(-c3csc(N4C(=O)C(C)SC4c4ccccc4O)n3)cc2)ccc1Cl (centres undefined)
2. CC(C)(C)C1C=C(Sc2ccccc2)C(=O)O1 (centres undefined)
3. COC1CC(O[C@H]2CC[C@@]3(C)C(=CCC4(O)C3CCC35C(=O)OC6(C)O[C@@]43CCC65)C2)OC(C)C1O (some centres undefined)

## Output
1: 28.8 µM (inactive); 2: 47 µM (inactive); 3: > 100 µM (inactive)

Batch of 3 compounds: report GI50 for each.
1. COc1ccccc1OCC(COC(=O)Nc1ccccc1)OC(=O)Nc1ccccc1 (centres undefined)
2. O=Cc1[nH]c2ccccc2c1Br
3. COc1ccc2cc1Oc1ccc(cc1)CC1c3cc(OC)c(cc3CCN1C)Oc1c(OC)c(OC)cc3c1C(C2)N(C)CC3 (centres undefined)

## Output
1. > 100 µM (inactive)
2. 35.9 µM (inactive)
3. 12.2 µM (inactive)

---

System: CAKI-1
Experiment: NCI tumour cell line growth inhibition, 48 h
Activity calls are given as the source filed them. Rule as the data show it: active = GI50 up to about 1.1 µM and inactive = higher.
measurement.kind: GI50

Consider the worked cases shown below.
compound	GI50
COc1ccc2cc1Oc1ccc(cc1)CC1c3cc(OC)c(cc3CCN1C)Oc1c(OC)c(OC)cc3c1C(C2)N(C)CC3 (stereo unspecified)	11.2 µM (inactive)
CCOC(=O)C(C(N)=O)C1=Nc2cc([N+](=O)[O-])ccc2N/C1=C\C(=O)c1ccc(C)cc1 (stereo unspecified)	46.6 µM (inactive)
CC1(C)O[C@H]2[C@@H]3N=C(c4ccccc4)O[C@@H]3C=C[C@H]2O1	> 100 µM (inactive)

Batch of 2 compounds: report GI50 for each.
1. COC1CC(O[C@H]2CC[C@@]3(C)C(=CCC4(O)C3CCC35C(=O)OC6(C)O[C@@]43CCC65)C2)OC(C)C1O (stereo partly specified)
2. CCOC(=O)c1ccc(C(=O)/C(C(=O)OC(C)(C)C)=C2\CCCN2C)n1C

## Output
> 100 µM (inactive)
> 100 µM (inactive)

Batch of 4 compounds: report GI50 for each.
1. Cn1c(-c2cccs2)cc(-c2ccccc2)c1-c1cccs1
2. CC(=O)[C@H]1[C@@H](OCc2ccccc2)O[N+]([O-])=C(C)[C@@H]1c1ccccc1
3. CN(N=O)C(=O)NC(CCCCNC(=O)OCc1ccccc1)C(=O)OCc1ccccc1 (stereo unspecified)
4. CCN(CC)c1ccc(/N=N/c2ccc(-c3nc4cccnc4o3)cc2)cc1

## Output
1: 93.5 µM (inactive); 2: 23.6 µM (inactive); 3: 21.4 µM (inactive); 4: > 100 µM (inactive)

Batch of 6 compounds: report GI50 for each.
1. CCOC(=O)C1=C(C)N(NC(=O)Nc2ccccc2)C(=O)C1=P(c1ccccc1)(c1ccccc1)c1ccccc1
2. Cc1ccc(CC2(C(=O)O)Cc3ccc(C)cc3C2)cc1 (stereo unspecified)
3. CCOC(=O)C1=C(Nc2ccc(Cl)cc2Cl)OCC1=O
4. CCOC(=O)C1C(c2ccc(OC)cc2)c2c(n[nH]c2O)CC1(O)OCC (stereo unspecified)
5. CCN(CC)CCCC(C)Nc1c2ccc(Cl)cc2nc2cc(Cl)ccc12 (stereo unspecified)
6. O/N=C1\C(=C\c2ccc3c(c2)OCCO3)CCCC1C(NO)c1ccc2c(c1)OCCO2 (stereo unspecified)

## Output
1. 44.7 µM (inactive)
2. > 100 µM (inactive)
3. > 100 µM (inactive)
4. > 100 µM (inactive)
5. 3.22 µM (inactive)
6. 32.4 µM (inactive)

Batch of 6 compounds: report GI50 for each.
1. C[n+]1cn(CC(=O)c2ccccc2)c(C(N)=O)c1N
2. CC1CCCN(CC(O)CN2CCCc3ccccc32)C1 (stereo unspecified)
3. C=C(C)C1CC2(C)C(C)CC(OC(=O)/C(C)=C\C)CC2C(OC(=O)/C(C)=C\C)C1O (stereo unspecified)
4. O=C1c2c(Br)sc(Br)c2[C@@H](O)[C@H]1O
5. CN1CCN(CCCNN)CC1
6. O=C(C#Cc1ccccc1)N1c2ccccc2CC1c1c[nH]c2ccccc12 (stereo unspecified)

## Output
["> 100 µM (inactive)", "> 100 µM (inactive)", "80.7 µM (inactive)", "18.4 µM (inactive)", "> 100 µM (inactive)", "11.4 µM (inactive)"]
